# experimental-system: Adenosine receptor A3 (Homo sapiens, UniProt P0DMS8)
# Sequence (P0DMS8 whole entry): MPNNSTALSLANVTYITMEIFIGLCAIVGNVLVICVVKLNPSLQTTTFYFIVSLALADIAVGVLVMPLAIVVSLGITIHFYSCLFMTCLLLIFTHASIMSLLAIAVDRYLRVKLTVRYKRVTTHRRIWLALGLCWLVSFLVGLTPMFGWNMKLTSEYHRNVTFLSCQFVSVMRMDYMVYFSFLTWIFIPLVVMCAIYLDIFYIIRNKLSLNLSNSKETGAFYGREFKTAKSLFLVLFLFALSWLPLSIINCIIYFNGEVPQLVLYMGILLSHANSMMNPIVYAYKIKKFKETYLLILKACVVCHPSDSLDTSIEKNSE
Threshold-based label: Ki under 20 nM gives met, Ki not under 20 nM gives not met.

Below 20 nM on Ki? Entry "CCNC(=O)[C@H]1O[C@@H](n2cnc3c(NC)nc(-n4ccnn4)nc32)[C@H](O)[C@@H]1O" met

Below 20 nM on Ki? Entry "CNc1nc(-n2cc(-c3ccccn3)nn2)nc2c1ncn2[C@@H]1O[C@H](CO)[C@@H](O)[C@H]1O" met

Below 20 nM on Ki? Entry "CNc1nc(-n2cc(Cc3ccccc3)nn2)nc2c1ncn2[C@@H]1O[C@H](CO)[C@@H](O)[C@H]1O" met

Below 20 nM on Ki? Entry "CNc1nc(-c2cn(Cc3ccccc3)nn2)nc2c1ncn2[C@@H]1O[C@H](CO)[C@@H](O)[C@H]1O" not met

Below 20 nM on Ki? Entry "COc1ccc(Cl)cc1CNc1nc(-n2cc(CC3CCCC3)nn2)nc2c1ncn2[C@@H]1O[C@H](CO)[C@@H](O)[C@H]1O" met

Below 20 nM on Ki? Entry "CCCCc1cn(-c2nc(NC)c3ncn([C@@H]4O[C@H](CO)[C@@H](O)[C@H]4O)c3n2)nn1" met

***
Below 20 nM on Ki? Entry "CCNC(=O)[C@H]1O[C@@H](n2cnc3c(NC)nc(-n4cc(Cc5ccccc5)nn4)nc32)[C@H](O)[C@@H]1O" met

Below 20 nM on Ki? Entry "CNc1nc(-n2cc(CCO)nn2)nc2c1ncn2[C@@H]1O[C@H](CO)[C@@H](O)[C@H]1O" not met

Below 20 nM on Ki? Entry "CNc1nc(-n2cc(CC3CCCCC3)nn2)nc2c1ncn2[C@@H]1O[C@H](CO)[C@@H](O)[C@H]1O" not met

Below 20 nM on Ki? Entry "CNc1nc(-n2cc(CN(C)C)nn2)nc2c1ncn2[C@@H]1O[C@H](CO)[C@@H](O)[C@H]1O" not met

Below 20 nM on Ki? Entry "CNc1nc(-n2cc(-c3ccccc3)nn2)nc2c1ncn2[C@@H]1O[C@H](CO)[C@@H](O)[C@H]1O" met

----------
# experimental-system: Adenosine receptor A2b (Homo sapiens)
# assay-notes: Activity at human adenosine A2B receptor in CHO cells assessed as stimulation of cAMP production relative to NECA at 10 uM
The source made the active and inactive calls. The calls are words filed in the database; no cut-off is given here.
endpoint: Activity

Which measured Activity value corresponds to "CCNC(=O)[C@H]1O[C@@H](n2cnc3c(NC)nc(-n4ccnn4)nc32)[C@H](O)[C@@H]1O" ? inactive

Which measured Activity value corresponds to "CCCCc1cn(-c2nc(NC)c3ncn([C@@H]4O[C@H](CO)[C@@H](O)[C@H]4O)c3n2)nn1" ? inactive

Which measured Activity value corresponds to "CCc1cn(-c2nc(NC)c3ncn([C@@H]4O[C@H](CO)[C@@H](O)[C@H]4O)c3n2)nn1" ? < 50%

Which measured Activity value corresponds to "CNc1nc(-n2cc(CCO)nn2)nc2c1ncn2[C@@H]1O[C@H](CO)[C@@H](O)[C@H]1O" ? inactive
